system: Pseudomonas aeruginosa; assay: Antibacterial activity against multidrug-resistant Pseudomonas aeruginosa ATCC BAA2108 after 18 hrs by Mueller-Hinton broth microdilution method; type: functional; settings: ATCC BAA2108, 18 h
Hi there, I'd appreciate the recorded MIC for every entry that follows.
I only need the number, in µg/mL, no unit after it.

Which MIC value is on record for `COc1ccc(Nc2c3ccccc3[n+](C)c3c2oc2ccccc23)cc1.[I-]` ?
64

Follow-up entry: `C[n+]1c2ccccc2c(Nc2ccc(F)cc2F)c2[nH]c3ccccc3c21.[I-]`
64

Another compound to look at: `CCOc1ccc(Nc2c3ccccc3[n+](C)c3c2oc2ccccc23)cc1.[I-]`
64

Repeat for the following compound: `C[n+]1c2ccccc2c(Nc2ccc(OC(F)(F)F)cc2)c2[nH]c3ccccc3c21.[I-]`
48
